Cited source for all entries: patent US5496844A

molecular target: rat uterus cytoplasm estrogen receptor (Rattus norvegicus, UniProt P06211); construct: the homogenate was centrifuged to give a cytoplasm fraction; from tissue; host or cells: uterus of female SD rats aged 3 to 4 weeks, cytoplasm fraction; assay: inhibition of specific binding of [3H]-moxestrol to rat uterus cytoplasm estrogen receptor; set-up: species or system rat (female SD); conditions: relative to moxestrol as control compound; rat uterus cytoplasm fraction; 4° C., 16 hours; DCC method
Sequence (P06211 whole entry): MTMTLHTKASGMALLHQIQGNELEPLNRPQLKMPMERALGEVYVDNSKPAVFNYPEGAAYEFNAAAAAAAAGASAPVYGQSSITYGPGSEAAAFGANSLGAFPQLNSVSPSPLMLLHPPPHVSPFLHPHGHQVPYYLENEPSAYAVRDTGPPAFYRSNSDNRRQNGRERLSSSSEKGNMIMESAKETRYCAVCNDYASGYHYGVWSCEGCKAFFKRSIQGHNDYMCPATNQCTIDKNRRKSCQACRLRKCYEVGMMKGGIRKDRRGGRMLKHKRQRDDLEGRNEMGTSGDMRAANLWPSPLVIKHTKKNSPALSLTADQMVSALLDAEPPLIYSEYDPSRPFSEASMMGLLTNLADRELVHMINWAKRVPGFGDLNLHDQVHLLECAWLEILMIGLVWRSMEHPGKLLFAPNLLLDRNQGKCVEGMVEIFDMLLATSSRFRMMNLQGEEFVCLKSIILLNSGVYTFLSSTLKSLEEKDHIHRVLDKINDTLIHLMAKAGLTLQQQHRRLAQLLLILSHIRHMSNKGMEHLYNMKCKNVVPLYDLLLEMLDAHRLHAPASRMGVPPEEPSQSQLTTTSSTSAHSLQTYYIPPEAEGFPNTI
Some molecules, each annotated with its measured RBA (relative binding affinity, 3H-moxestrol binding inhibiting effect (IC50) ratio).
observed-property: RBA (relative binding affinity, 3H-moxestrol binding inhibiting effect (IC50) ratio) (%)

>  <molecule>
CSc1ccc(-c2c(C)c3cc(O)ccc3n2CCCCCCCCN2CCCCC2)cc1

>  <assay-value>
93

$$$$
>  <molecule>
CSc1ccc(-c2c(C)c3cc(O)ccc3n2CCCCCCNC2CC2)cc1

>  <assay-value>
64

$$$$
>  <molecule>
O=C(c1ccc(OCCn2cncn2)cc1)n1c(-c2ccc(Sc3ccccc3)cc2)cc2cc(O)ccc21

>  <assay-value>
57

$$$$
>  <molecule>
CSc1ccc(-c2c(C)c3cc(O)ccc3n2CCCCCCNC2CCCC2)cc1

>  <assay-value>
44

$$$$
>  <molecule>
CSc1ccc(-c2c(C)c3cc(O)ccc3n2CCCCCCCC(=O)NC2CCC2)cc1

>  <assay-value>
78

$$$$
>  <molecule>
CSc1ccc(-c2c(C)c3cc(O)ccc3n2CCCCCCNC(C)c2ccccc2)cc1 (stereo not shown)

>  <assay-value>
42

$$$$
>  <molecule>
CSc1ccc(-c2c(C)c3cc(O)ccc3n2CCCCCCCCN2CCCC2)cc1

>  <assay-value>
121

$$$$
>  <molecule>
CSc1ccc(-c2c(C)c3cc(O)ccc3n2CCCCCCCCNC2CCC2)cc1

>  <assay-value>
116

$$$$
>  <molecule>
CSc1ccc(-c2c(C)c3cc(O)ccc3n2CCCCCCCC(=O)N2CCCCC2)cc1

>  <assay-value>
41

$$$$
>  <molecule>
CSc1ccc(-c2c(C)c3cc(O)ccc3n2CCCCCCCC(=O)NC(C)(C)C)cc1

>  <assay-value>
41

$$$$
>  <molecule>
CCSc1ccc(-c2cc3cc(O)ccc3n2CCCCCCCCNC(C)C)cc1

>  <assay-value>
51

$$$$
>  <molecule>
O=C(c1ccc(OCCN2CCCC2)cc1)n1c(-c2ccc(Sc3ccccc3)cc2)cc2cc(O)ccc21

>  <assay-value>
50

$$$$
>  <molecule>
CSc1ccc(-c2c(C)c3cc(O)ccc3n2CCCCCCN2CCSC2)cc1

>  <assay-value>
70

$$$$
>  <molecule>
CCC(C)(C)NCCCCCCn1c(-c2ccc(SC)cc2)c(C)c2cc(O)ccc21

>  <assay-value>
57

$$$$
>  <molecule>
CSc1ccc(-c2c(C)c3cc(O)ccc3n2CCCCCCCCN2CCOCC2)cc1

>  <assay-value>
48

$$$$
>  <molecule>
CCC(C)NCCCCCCn1c(-c2ccc(SC)cc2)c(C)c2cc(O)ccc21 (stereo not shown)

>  <assay-value>
60

$$$$
>  <molecule>
CSc1ccc(-c2c(C)c3cc(O)ccc3n2CCCCCCCCN(C)C)cc1

>  <assay-value>
82

$$$$
>  <molecule>
Cc1c(-c2ccc(Sc3ccccc3)cc2)n(CCCCCCNC(C)C)c2ccc(O)cc12

>  <assay-value>
46

$$$$
>  <molecule>
CSc1ccc(-c2c(C)c3cc(O)ccc3n2CCCCCCCC(=O)N(C)C)cc1

>  <assay-value>
94

$$$$
